Where do these numbers come from? They come from ChEMBL document CHEMBL1201862.

- Test system: NCI-H522
- PROTOCOL DETAILS: NCI tumour cell line growth inhibition, 48 h
Active and inactive are the calls of the source. Rule as the data show it: active = GI50 up to about 1.1 µM and inactive = higher.
// values below are reported GI50

Recorded results for 4 compounds are shown here.
{"columns": ["COMPOUND", "GI50"],
 "data": [
  ["CC(=O)c1ccc2c(ccc(=O)n2C)c1", "56.2 µM (inactive)"],
  ["CC(=O)Nc1ccc(/N=C2\\C(c3ccccc3)=C(SC3=C(c4ccccc4)/C(=N\\c4ccc(NC(C)=O)cc4)c4ccccc43)c3ccccc32)cc1", "28.4 µM (inactive)"],
  ["CCCC(OCC)(OCC)OCC", "> 100 µM (inactive)"],
  ["CN(C)N1C(=C(C#N)C#N)C(c2ccccc2)CC1C#N (stereo not given)", "> 100 µM (inactive)"]
]}

Query compound follows.
Data request: Entry Cn1ccnc1Sc1ccc(/C=N/c2ccc3nc(SCC(=O)NC4CCCCC4)sc3c2)cc1[N+](=O)[O-] : reported GI50 = ?
Data returned: 65.9 µM (inactive)

----------
- Test system: SK-MEL-5
- PROTOCOL DETAILS: NCI tumour cell line growth inhibition, 48 h
Calls of active or inactive are those of the source. No stated cut-off is given here; in the data, active = GI50 up to about 1.1 µM and inactive = higher. Where a SMILES comes first, the peptide text is derived from it. [ ]: non-standard residue; d: D form. The star is where a group is joined. Hyp = O=C(O)[CH]1C[CH](O)CN1; Cbz = O=C(OCc1ccccc1)*
Pick one and only one: active, inactive

Example entries begin here.
{"columns": ["COMPOUND", "ASSIGNED CATEGORY"],
 "data": [
  ["O=C(NN1C(=O)C(Cl)C1c1ccccc1O)c1ccccc1O (stereo not given)", "inactive"],
  ["Cc1ccc(N2C(=O)/C(=C3\\SC(C(N)=O)=C(N)N3c3ccccc3)SC2=S)cc1", "inactive"],
  ["NC(=O)CNC(=O)C1CC(O)CN1C(=O)C1CCCN1C(=O)OCc1ccccc1 (stereo not drawn) (Cbz-Pro-[Hyp]-Gly-NH2; configuration not given here)", "inactive"],
  ["COc1ccc(C2c3cc4c(cc3OC(NNc3ccccc3)C2C)OCO4)cc1 (stereo not given)", "inactive"],
  ["CCOC(=O)CSc1nnc2cc(CN3CCCC3)c(-c3ccc(Cl)cc3)nn12", "inactive"],
  ["CCOC(=O)c1ccc(-c2ccc(Cl)cc2)[nH]1", "inactive"]
]}

# ---- query compound ----
Data request: Record lookup: outcome of this test for Cc1ccc(C)c(NC(=O)NCc2ccc(Cl)cc2)c1 ?
Data returned: inactive

----------
- System: ACHN
- PROTOCOL DETAILS: NCI tumour cell line growth inhibition, 48 h
Active and inactive are the calls of the source. Rule as the data show it: active = GI50 up to about 1.1 µM and inactive = higher.
QUANTITY KIND: GI50

{"columns": ["MOLECULE", "RESULT"],
 "data": [
  ["Cc1nn(C(=O)c2ccncc2)c2c1C(c1ccc([N+](=O)[O-])cc1)SC(=N)N2 (stereo not drawn)", "> 100 µM (inactive)"],
  ["Cc1ccc(C2=CC(=O)OC(C[P+](c3ccccc3)(c3ccccc3)c3ccccc3)(c3ccccc3)O2)cc1 (stereo not drawn)", "21.3 µM (inactive)"]
]}

Query molecule follows.
Data request: Entry CCCCNC(=S)Nc1nc(C(=O)NNC(=O)c2ccccc2)cs1 : reported GI50 = ?
Data returned: 15.9 µM (inactive)

----------
- Tested on: NCI-H522
- PROTOCOL DETAILS: NCI tumour cell line growth inhibition, 48 h
The source made the active and inactive calls. Rule as the data show it: active = GI50 up to about 1.1 µM and inactive = higher.
Pick one and only one: active, inactive

{"columns": ["MOLECULE", "MEASUREMENT TARGET", "ASSIGNED CATEGORY"],
 "data": [
  ["Fc1ccc2c(c1)nc1n2C(c2c(F)cccc2F)SC1 (centres undefined)", "NCI-H522", "inactive"],
  ["C=CCNC1=C2C[C@@H](C)C[C@@H](OC)[C@H](OC(=O)CN)[C@H](C)/C=C(\\C)[C@@H](OC(N)=O)[C@H](OC)/C=C\\C=C(/C)C(=O)NC(=CC1=O)C2=O", "NCI-H522", "active"],
  ["O=[N+]([O-])c1cccc(/N=N/c2c(O)ccc3ccccc23)c1", "NCI-H522", "inactive"]
]}

Data request: Record lookup: outcome of this test for Clc1cc(Cc2cc(Cl)c(Cl)c3c2OCOC3)c2c(c1Cl)COCO2 ?
Data returned: inactive

Data request: Record lookup: outcome of this test for CCN(c1ccccc1)[C@H]1C(=O)N(c2ccc([N+](=O)[O-])cc2)[C@H]1c1ccc(OC)cc1 ?
Data returned: inactive

Data request: Record lookup: outcome of this test for Cc1csc(CP(=O)(OC(C)C)OC(C)C)n1 ?
Data returned: inactive

Data request: Record lookup: outcome of this test for CCOc1ccc(/C=C(\Cl)c2ccc(OC)cc2)cc1 ?
Data returned: inactive

Data request: Record lookup: outcome of this test for NS(=O)(=O)c1nnc(NS(=O)(=O)c2ccc([N+](=O)[O-])cc2)s1 ?
Data returned: inactive

Data request: Record lookup: outcome of this test for COc1cc2c(cc1OCCN1C(=O)c3cccc4cccc(c34)C1=O)N=C[C@@H]1CCCN1C2=O ?
Data returned: inactive
